Origin of values: ChEMBL document CHEMBL3885861

species: Rattus norvegicus; experiment: Open TG-GATES - Regimen: Single; type: toxicity, organism-based, Sprague-Dawley; parameters: regimen Single, gender Male, age 6 weeks; details: in vivo, po, 0 mg/kg, 24 h, tissue Plasma, route gavage, dose level Control
Binning rule for recorded DBIL: range 1: < 0.006 mg/dL; range 2: ≥ 0.006 mg/dL and < 0.02 mg/dL; range 3: ≥ 0.02 mg/dL

Worked examples, 9 molecules total:
Molecule	Label Value
OCCOCCN1CCN(C(c2ccccc2)c2ccc(Cl)cc2)CC1 (stereo unspecified) [HYDROXYZINE]	range 2
CC[C@H]1[C@@H]2C[C@H]3[C@@H]4N(C)c5ccccc5[C@]45C[C@@H]([C@@H]2[C@H]5O)N3[C@@H]1O	range 3
CN(C)C(=N)N=C(N)N	range 2
O=NN1CCOCC1	range 1
CC1=C(CC(=O)O)c2cc(F)ccc2/C1=C\c1ccc([S+](C)[O-])cc1 (stereo unspecified)	range 2
O=NN(CCCl)C(=O)NC1CCCCC1	range 2
ClC(Cl)(Cl)Cl [CARBON TETRACHLORIDE]	range 3
CC(C)N(CCC(C(N)=O)(c1ccccc1)c1ccccn1)C(C)C (stereo unspecified) [DISOPYRAMIDE]	range 1
CN(C)CCC=C1c2ccccc2COc2ccccc21 [DOXEPIN]	range 1

Switching to the query record.
Enquiry: Bin this entry: CCC1(c2ccccc2)C(=O)NC(=O)NC1=O
Return: range 3
